Target: T1, full-length human Tau (Tau441; 2N4R), recombinant (human, UniProt P10636 1-758)
T1 construct: made in E. coli, His6-Smt3 tag removed; biotinylated through amines for Octet and phage work; also called r-Tau; recombinant Tau
T1 sequence (P10636 other isoform, or with tags, fused parts or gaps limits assumed): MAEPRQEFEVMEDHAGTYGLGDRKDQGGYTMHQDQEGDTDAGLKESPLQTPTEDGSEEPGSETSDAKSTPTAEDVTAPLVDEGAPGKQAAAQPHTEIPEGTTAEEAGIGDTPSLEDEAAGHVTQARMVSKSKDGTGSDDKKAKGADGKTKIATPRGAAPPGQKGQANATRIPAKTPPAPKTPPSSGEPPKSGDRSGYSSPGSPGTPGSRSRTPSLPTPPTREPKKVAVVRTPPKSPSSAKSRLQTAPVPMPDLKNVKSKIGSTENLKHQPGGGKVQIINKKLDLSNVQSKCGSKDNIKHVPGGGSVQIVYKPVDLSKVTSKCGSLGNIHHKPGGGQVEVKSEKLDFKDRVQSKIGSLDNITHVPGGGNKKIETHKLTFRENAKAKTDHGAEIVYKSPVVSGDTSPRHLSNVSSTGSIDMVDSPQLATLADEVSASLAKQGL
Experiment: SPR Biacore

binder | endpoint.unit | kon
Clone with L1_6 (antibody, V domains shown, based on hu1C7.v2) VH: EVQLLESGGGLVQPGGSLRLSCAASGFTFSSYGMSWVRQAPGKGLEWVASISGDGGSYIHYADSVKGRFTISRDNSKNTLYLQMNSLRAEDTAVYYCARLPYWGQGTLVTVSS VL: DIVMTQSPDSLAVSLGERATINCKSSQSLLQSGNQKNYLTWYQQKPGQPPKLLIYWASTRESGVPDRFSGSGSGTDFTLTISSLQAEDVAVYYCQQYNSYPLTFGQGTKVEIKR | M⁻¹ s⁻¹ | 1.17e+06
Clone with L3_6 (antibody, V domains shown, based on hu1C7.v2) VH: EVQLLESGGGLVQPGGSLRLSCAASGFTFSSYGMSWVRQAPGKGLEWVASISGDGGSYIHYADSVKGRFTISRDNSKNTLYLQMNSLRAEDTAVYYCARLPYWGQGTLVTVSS VL: DIVMTQSPDSLAVSLGERATINCKSSQSLLNSGNQKNYLTWYQQKPGQPPKLLIYWASTRESGVPDRFSGSGSGTDFTLTISSLQAEDVAVYYCQQYSSYPLTFGQGTKVEIKR | M⁻¹ s⁻¹ | 826000
Clone with H1_2 (antibody, V domains shown, IgG based on hu1C7.v2) VH: EVQLLESGGGLVQPGGSLRLSCAASGFTFSRVGTSWVRQAPGKGLEWVASISGDGGSYIHYADSVKGRFTISRDNSKNTLYLQMNSLRAEDTAVYYCARLPYWGQGTLVTVSS VL: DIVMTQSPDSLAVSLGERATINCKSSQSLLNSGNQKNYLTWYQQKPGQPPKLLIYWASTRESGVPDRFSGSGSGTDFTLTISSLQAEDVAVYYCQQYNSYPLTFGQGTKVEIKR | M⁻¹ s⁻¹ | 276000
Clone with L1_3-4 (antibody, V domains shown, based on hu1C7.v2) VH: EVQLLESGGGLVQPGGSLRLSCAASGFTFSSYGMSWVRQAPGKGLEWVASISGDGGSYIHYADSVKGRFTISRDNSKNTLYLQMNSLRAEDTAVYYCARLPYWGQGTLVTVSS VL: DIVMTQSPDSLAVSLGERATINCKSSQSLHNSGTQKDYLVWYQQKPGQPPKLLIYWASTRESGVPDRFSGSGSGTDFTLTISSLQAEDVAVYYCQQYNSYPLTFGQGTKVEIK | M⁻¹ s⁻¹ | 1.5e+06
